Reference source: patent US6887669B1

assay: Background absorbance at 340 nm of Reagent A containing releasing agent; type: physicochemical; settings: 3 μL negative NHP + 72 μL water + 155 μL Reagent A; 0.6 cm path; ANS 0.25 mM, anisic acids 12.5 mM in Rgt A
RECORDED_METRIC: C A 340 nm (background absorbance)

> print(dat)
                                   molecule  number
1                          COc1ccccc1C(=O)O   0.490
2  O=S(=O)(O)c1cccc2cccc(Nc3ccccc3)c12 [ANS, 8-anilino-1-naphthalene sulfonic acid, reference compound]   0.779
3                        COc1cccc(C(=O)O)c1   0.494
4                        COc1ccc(C(=O)O)cc1   0.494

====

# G Buff with 0 μg/mL MPA Rate per record follows
system: MPA bound to plasma proteins in normal human plasma (NHP); test: MPA enzyme immunoassay rates with releasing agents in Reagent A (NHP versus buffer), Example 2; conditions: 50 mM MES buffer pH 7.1; ANS 0.25 mM, anisic acids 12.5 mM in Rgt A
RECORDED_METRIC: G Buff with 0 μg/mL MPA Rate (mA/min)

> print(dat)
                                   compound  number
1                 COc1ccc(C(=O)O)cc1 [p-AA]   182.3
2                 COc1cccc(C(=O)O)c1 [m-AA]   189.4
3  COc1ccccc1C(=O)O [o-AA, o-methoxybenzoic acid]   168.2
4  O=S(=O)(O)c1cccc2cccc(Nc3ccccc3)c12 [ANS, 8-anilino-1-naphthalene sulfonic acid, reference compound]   156.0

====

tested on: MPA bound to plasma proteins in normal human plasma (NHP); experiment: MPA enzyme immunoassay rates with releasing agents in Reagent A (NHP versus buffer), Example 2; conditions: ANS 0.25 mM, anisic acids 12.5 mM in Rgt A
RECORDED_METRIC: F NHP with 10 μg/mL MPA Rate (mA/min)

> print(dat)
                                   compound  unit.spec  number
1  O=S(=O)(O)c1cccc2cccc(Nc3ccccc3)c12 [ANS, 8-anilino-1-naphthalene sulfonic acid, reference compound]     mA/min   274.2
2                          COc1ccccc1C(=O)O     mA/min   276.9
3                        COc1cccc(C(=O)O)c1     mA/min   280.3
4                        COc1ccc(C(=O)O)cc1     mA/min   280.4

====

Tested on: MPA bound to plasma proteins in normal human plasma (NHP)
Assay: MPA enzyme immunoassay rates with releasing agents in Reagent A (NHP versus buffer), Example 2
Conditions: ANS 0.25 mM, anisic acids 12.5 mM in Rgt A
Description: Rates were determined on a Cobas Mira Plus® instrument (Roche Diagnostics Systems, Inc., Branchburg, N.J.). The temperature was kept at 37° C. for the entire assay. Timings were carried out in cycles with each cycle being 25 seconds. […] During the assay, absorbance readings at 340 nm were made at the end of every cycle. A best linear fit was then made using only the 12 consecutive absorbance readings of cycles 14 through 25 versus time in minutes. […]
RECORDED_METRIC: E NHP with 0 μg/mL MPA Rate (mA/min)

> print(dat)
                                   compound                       experimental.system              recorded.metric  unit.spec  number
1  O=S(=O)(O)c1cccc2cccc(Nc3ccccc3)c12 [ANS, 8-anilino-1-naphthalene sulfonic acid, reference compound]  MPA bound to plasma proteins in normal human plasma (NHP)  E NHP with 0 μg/mL MPA Rate     mA/min   158.2
2                 COc1cccc(C(=O)O)c1 [m-AA]  MPA bound to plasma proteins in normal human plasma (NHP)  E NHP with 0 μg/mL MPA Rate     mA/min   188.1
3                 COc1ccc(C(=O)O)cc1 [p-AA]  MPA bound to plasma proteins in normal human plasma (NHP)  E NHP with 0 μg/mL MPA Rate     mA/min   182.7
4  COc1ccccc1C(=O)O [o-AA, o-methoxybenzoic acid]  MPA bound to plasma proteins in normal human plasma (NHP)  E NHP with 0 μg/mL MPA Rate     mA/min   169.5
